- Target under test: DNA
- Run description: Binding affinity to DNA (unknown origin) assessed as dissociation constant by Benesi-Hildebrand equation based analysis
Parameter measured: pKd
Friendly reminder that pKd comes from taking -log10 of the concentration in mol/L.

Input: Data request, read-out pKd, for CN(C)CCN(C)c1ccc(-c2nc3ccc(C(F)(F)F)cc3nc2-c2ccc(N(C)CCN(C)C)cc2)cc1
Output: 5.85

---

// values below are reported pIC50
- Tested on: MDA-MB-231
- Run description: Cytotoxicity against human MDA-MB-231 cells incubated for 24 hrs by CCK-8 reagent based spectrophotometric analysis
- Format: functional, cell-based
- Condition info: MDA-MB-231, 24 h
Friendly reminder that pIC50 comes from taking -log10 of the concentration in mol/L.

Look over these answered cases.
Smiles structure	Target under test	Numeric value
OCCN1CCN(c2ccc(-c3nc4ccc(C(F)(F)F)cc4nc3-c3ccc(N4CCN(CCO)CC4)cc3)cc2)CC1	MDA-MB-231	5.70
COc1ccc2nc(-c3ccc(N(C)CCN(C)C)cc3)c(-c3ccc(N(C)CCN(C)C)cc3)nc2c1	MDA-MB-231	5.21
CN(CCO)c1ccc(-c2nc3ccc(F)cc3nc2-c2ccc(N(C)CCO)cc2)cc1	MDA-MB-231	4.48
CN(C)CCN1CCN(c2ccc(-c3nc4cc5ccccc5cc4nc3-c3ccc(N4CCN(CCN(C)C)CC4)cc3)cc2)CC1	MDA-MB-231	5.28

Input: Data request, read-out pIC50, for CN(CCO)c1ccc(-c2nc3cc4ccccc4cc3nc2-c2ccc(N(C)CCO)cc2)cc1
Output: 4.68

Input: Data request, read-out pIC50, for OCCN1CCN(c2ccc(-c3nc4cc5ccccc5cc4nc3-c3ccc(N4CCN(CCO)CC4)cc3)cc2)CC1
Output: 5.60

Input: Data request, read-out pIC50, for COc1ccc2nc(-c3ccc(N4CCN(CCN(C)C)CC4)cc3)c(-c3ccc(N4CCN(CCN(C)C)CC4)cc3)nc2c1
Output: 5.64
